Where do the numbers come from? From a melting point compilation (Tetko et al.; mined from patent text by program, amines drawn as free bases though some values may be those of a salt).

Some molecules, each annotated with its measured melting point.

Here are 5 molecules together with their reported answers.
- Molecule: "CCOC(=O)Nc1c(OC)cc(Cc2cnc(N)nc2N)cc1OC"
  Observed measurement: "192 to 193 °C"
- Molecule: "CCc1nc([C@@H]2C[C@H]2c2nc3ccccc3n2C)cc(-n2nc(C)nc2C)n1 (relative stereo)"
  Observed measurement: "158 to 160 °C"
- Molecule: "Cc1ccc(C2CCN(C(=O)Nc3ccc4cc(CN5CCCCC5)ccc4c3)CC2)cc1"
  Observed measurement: "227 to 228 °C"
- Molecule: "CC(C)c1c(C=CC(=O)CC(O)CC(=O)O)c(-c2ccccc2)c2c3ccccc3ccn12 (stereo not given)"
  Observed measurement: "95 to 100 °C"
- Molecule: "O=Cc1csc2cc([N+](=O)[O-])ccc12"
  Observed measurement: "187 to 192 °C"

Incoming: Give the measured melting point of CN(C)CCCn1c(-c2ccc(C#N)cc2)cc2c1CCCCC2 .
Outgoing: 96 to 97 °C

Incoming: Give the measured melting point of CC(=O)CSC1C2=C(CCCC2)C(=O)N1c1ccc(Cl)cc1F (stereo not given) .
Outgoing: 131 to 132 °C

Incoming: Give the measured melting point of Cc1ccc(NCCC(N)=S)c(C)c1 .
Outgoing: 104 to 105 °C

Incoming: Give the measured melting point of NS(=O)(=O)c1ccc(S(=O)(=O)N2CCC(=O)CC2)cc1Cl .
Outgoing: 195 to 196 °C

Incoming: Give the measured melting point of COCC#Cc1ncn2c1CN(C)C(=O)c1c(Cl)cccc1-2 .
Outgoing: 154 to 156 °C

Incoming: Give the measured melting point of N=C(N)NCCCOc1ccc2c(c1)CC(CC(=O)O)C(=O)N2 (stereo not given) .
Outgoing: 178 to 179 °C

Incoming: Give the measured melting point of O=C(CCCl)N(c1ccccc1)C1CCCc2ccccc21 (stereo not given) .
Outgoing: 78 to 81 °C

Incoming: Give the measured melting point of Cc1c(CN(C)CCc2ccc(NS(C)(=O)=O)cc2)oc2ccc(NS(C)(=O)=O)cc12 .
Outgoing: 142 to 144 °C

Incoming: Give the measured melting point of COc1c(C=O)c(C)cc2c1C(C)(C)CCC2(C)C .
Outgoing: 78 °C

Incoming: Give the measured melting point of C[C@@H](N1CCN(c2ccc(OCC(F)(F)C(F)(F)F)cc2)C1=O)[C@@]1(c2ccc(F)cc2F)CO1 .
Outgoing: 141 to 144 °C

Incoming: Give the measured melting point of c1ccc(-c2nc(-c3ccc4cc(OCc5nnn[nH]5)ccc4c3)cs2)cc1 .
Outgoing: 226 to 228 °C

Incoming: Give the measured melting point of COc1cc(C=C(C=O)C(C=O)=Cc2ccc(OC(C)C)c(OC)c2)ccc1OC(C)C .
Outgoing: 119 to 120 °C

----------
Some molecules, each annotated with its measured melting point.

Here are 4 molecules together with their reported answers.
- Molecule: "Cc1cccc(N2CCN(CCc3c(C)nc4c(C)cccn4c3=O)CC2)c1"
  Observed measurement: "106 °C"
- Molecule: "C1=C(CCc2ccco2)CCN(Cc2n[nH]c3c2CCc2ccccc2-3)C1"
  Observed measurement: "205 to 208 °C"
- Molecule: "Cc1ccc(NCCCNc2ncc(Cc3ccc(C)nc3)c(=O)[nH]2)nc1"
  Observed measurement: "164 to 166 °C"
- Molecule: "CS(=O)(=O)N1Cc2cccc(-c3ccc4cnc(Nc5ccc(C6CN(CC(N)=O)C6)cc5)nn34)c2C1"
  Observed measurement: "216 to 218 °C"

Field: next molecule
Incoming: Give the measured melting point of COc1ccc(C(O)c2ccc(C(=O)N(C3CCCC3)C3CCCC3)cc2)cc1OC (stereo not given) .
Outgoing: 137 to 138 °C
